Data origin: the supplement of paper PMC12042874

- protocol-details: amyloid nucleation score (Sup35N fusion, yeast selection) (log enrichment); library NNK2; higher = more nucleation; inactive = no reads after selection;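 note: zero at mode of non-aggregating sequences after 7 days selection at 30°C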
Tick True if amyloid nucleation score is -0.006 or greater. Tick False if amyloid nucleation score is less than -0.006.

Check the entry SADRRQGITRFGTFNGGVRS : does amyloid nucleation score equal or exceed -0.006?
True

amyloid nucleation score >= -0.006 for LSKGTPSQSMMSSLLSINTL ?
False

Given TTIFGNSATLDGIPHIIKRP , state whether its amyloid nucleation score is at least -0.006.
False

Hi team, for PYIEVY , is the recorded amyloid nucleation score at or above -0.006?
True

Decide: is the reported value of amyloid nucleation score for EMYFALLVLFVLGGFSM equal to or greater than -0.006?
False

Would you say LSWITPIKIGISFSLALIFT shows amyloid nucleation score at minimum -0.006?
False

Threshold query (amyloid nucleation score >= -0.006) on FINWHGMHSL
True

Kindly determine if amyloid nucleation score recorded for YPTASVTATSHTFILSSNKN is above or exactly -0.006.
True

Could you please find out whether CVVVRSCI has amyloid nucleation score that meets -0.006 or exceeds it?
False

hey, is amyloid nucleation score for this one >= -0.006? SVSDLLLIYVIESSCSHGFK
True

Check if amyloid nucleation score >= -0.006 (inclusive). Item: YRSFCWEQ
False

Is it the case that LSLFHPCLL has amyloid nucleation score reaching or exceeding -0.006?
False

Identify whether the reported amyloid nucleation score of the following substance is -0.006 or greater: VGKWVRGQTSLLLVAWSAIY
True

Threshold query (amyloid nucleation score >= -0.006) on IGSLNMLLLGRLVVWMRHIA
True

Reported amyloid nucleation score reaches at least -0.006 for IATAKTRQGFPLMSTLPAIV ?
True

Hello, I need to know if FWRLWIVCIPLVYLRR has measured amyloid nucleation score not below -0.006. Thanks!
True

Entry PRNRQRSNSTDCGHLITYWD : is its amyloid nucleation score no less than -0.006?
True

Hello, I need to know if VNFYSALSSDNTRMYWLLTV has measured amyloid nucleation score not below -0.006. Thanks!
False

Kindly determine if amyloid nucleation score recorded for LYYMHNE is above or exactly -0.006.
False

Please check the record HHHLRQVLGESQYLSCLWIK and state if its amyloid nucleation score is at or above -0.006.
True

Decide: is the reported value of amyloid nucleation score for SCNPRKNGSQCCGMNLSLSV equal to or greater than -0.006?
True

Textbook exercise: given the entry IRLTSAYLHSDVWGVMQWNK , state whether its amyloid nucleation score is greater than or equal to -0.006.
True

Could you please find out whether FMRFARMCS has amyloid nucleation score that meets -0.006 or exceeds it?
True

State whether the measured amyloid nucleation score reaches -0.006, counting equality as reaching it, for YGDGGDIC
False

Hi team, for ICIHYANNLLVNMRTKMCHK , is the recorded amyloid nucleation score at or above -0.006?
True

Does amyloid nucleation score meet or surpass -0.006 for NSLANDTQIRKNCLSIV ?
False

Does the reported amyloid nucleation score for YMSARVMFGGEPCCCGSGGE fall at or above the -0.006 mark?
True

State whether the measured amyloid nucleation score reaches -0.006, counting equality as reaching it, for IYALFLICLLHISVGLLMYR
False

State whether the measured amyloid nucleation score reaches -0.006, counting equality as reaching it, for NQCAVQGLYRRRMVHDRQED
False
